In this section we review reported molar heat capacity at constant pressure values for a set of compounds.
protocolDetails: molar heat capacity at constant pressure
conditionInfo: 318.15 K; 101.33 kPa; Liquid; Small sample (50 mg) DSC
quantityMeasured: molar heat capacity at constant pressure (J/K/mol)

{"compound": "CCn1cc[n+](C)c1.O=S(=O)([O-])C(F)(F)F [1-ethyl-3-methylimidazolium trifluoromethanesulfonate]", "quantityMeasured": "molar heat capacity at constant pressure", "unitSpec": "J/K/mol", "number": 371.8}
{"compound": "C[N+](=O)[O-] [nitromethane]", "quantityMeasured": "molar heat capacity at constant pressure", "unitSpec": "J/K/mol", "number": 108.6}
{"compound": "CCOS(=O)(=O)[O-].CCn1cc[n+](C)c1 [1-ethyl-3-methylimidazolium ethyl sulfate]", "quantityMeasured": "molar heat capacity at constant pressure", "unitSpec": "J/K/mol", "number": 404.9}
{"compound": "CCCCCCn1cc[n+](C)c1.F[B-](F)(F)F [1-hexyl-3-methylimidazolium tetrafluoroborate]", "quantityMeasured": "molar heat capacity at constant pressure", "unitSpec": "J/K/mol", "number": 438.1}
{"compound": "CCCCn1cc[n+](C)c1.O=S(=O)([O-])C(F)(F)F [1-butyl-3-methylimidazolium trifluoromethanesulfonate]", "quantityMeasured": "molar heat capacity at constant pressure", "unitSpec": "J/K/mol", "number": 435.5}
{"compound": "CCCCn1cc[n+](C)c1.COS(=O)(=O)[O-] [1-butyl-3-methylimidazolium methyl sulfate]", "quantityMeasured": "molar heat capacity at constant pressure", "unitSpec": "J/K/mol", "number": 425.6}
{"compound": "CCCCn1cc[n+](C)c1.F[B-](F)(F)F [1-butyl-3-methylimidazolium tetrafluoroborate]", "quantityMeasured": "molar heat capacity at constant pressure", "unitSpec": "J/K/mol", "number": 372.9}

Where these numbers come from: the NIST ThermoML archive (doi:10.1016/j.jct.2008.09.002)
